- MEASUREMENT DESCRIPTION: soluble fraction after stress (log2 fold change); higher = more stays soluble; pooled small domains, quantitative proteomics
- CONDITION DETAILS: stress: 50 degC
Measured soluble fraction (log2) determines class: low bin = under -0.5, mid bin = from -0.5 up to 0.07, high bin = 0.07 and over

SEQ STRING: HMHSEISGGSKDPFRFMPHLGVEDIHAETDRLSGSGVEFIREPDQESWGGWVATFKDPDGNILQLLQL
CATEGORY: high bin
//
SEQ STRING: HMTDQYEVQNLVGLTVREAQEKEGVKDIFEVREVGSEFSAEYDAGLIVRQSPDAGEQRKGEGLVIEVWVSA
CATEGORY: mid bin
//
SEQ STRING: HMTAPDDFIRAEVTASGKNGMAVAELSKRVRTRFKSFKVRELGYPHLAGYLADVEGVRVYKQGRENWVAK
CATEGORY: low bin
//
SEQ STRING: HMETGEDSLRRYFNSLPGSASKREILEDNPTVSQRTTERILQKLQAEGFIEKVGAARATRYRKVKQ
CATEGORY: high bin
//
SEQ STRING: HMKNFAPVWGEEGAEFGKEVDTGFRLRIVEKEKDVNDLFEVIQKHTIQSQWKPGSTGTESIYKRI
CATEGORY: high bin
//
SEQ STRING: HMSMLSQERQSLILDIIKEQGSVTVTRLTEILQSSESTVRRDLSYLASKGKINKVHGGATALG
CATEGORY: mid bin
//
SEQ STRING: HMILSTNFFRHIVPKEYQTSYGTMKKWLTDHNVIGTNSIPQGIGYRIPTQGLSSTFSFKVVDVLPDR
CATEGORY: low bin
//
SEQ STRING: HMGTLSLLVQKLMAVGLEGAKASEIVERFDRERIERQINALPSRKIKSSRTGFLIRAIELDIPVE
CATEGORY: low bin
//
SEQ STRING: HMVEPIEESISQLSLLLQSLYEDGKSEVSFEELIRSDRSRVSLFLALLFMAQRGNVYLEQEELFGDLRVKN
CATEGORY: mid bin
//
SEQ STRING: HMTYFIADLIGLQVYTDSGELLGKVDDIYNSGSADIYVVKDELGKQILLPGIKDVIKQIDVDNEKIIVHLI
CATEGORY: low bin
//
SEQ STRING: HMESNDSNIEDDFYEGLKSMRKGDLKMSVVFFTRVIEKKPTFAEAWNRRATVYYMLGKFDKSMFDINETLK
CATEGORY: mid bin
//
SEQ STRING: HMSQAVTMLKAGRLLANSKGTGAAVRDLEPGMLLYPTGQKDGTMWEVEDEMGNKGWVNSTSMQLA
CATEGORY: high bin
//
SEQ STRING: HMSKSVEQRRQQIVAWVKEHGQSQVEDLAVRFATSEVTIRKDLAALSQQGLLIRQFGGAVPVPA
CATEGORY: low bin

###

- MEASUREMENT DESCRIPTION: soluble fraction after stress (log2 fold change); higher = more stays soluble; pooled small domains, quantitative proteomics
- CONDITION DETAILS: stress: 50 degC
# soluble fraction (log2) per record follows

SEQ STRING: HMSKRDDLLDQASEWLAKLDRDLTVVEERELKAWLGESAAHRETFIQMAKLWDKMESLSRLTDL
soluble fraction (log2): -0.397
--
SEQ STRING: HMTFNEPSPKEIMDYSLSRGYKVDADAFIDFYRGKAKAYGKEGLWLDGRGRLVKDWRAKLRVVWFKDENKL
soluble fraction (log2): -1.22
--
SEQ STRING: HMEDSAKRHQIMDGARRVFMDLGFDGASMNEIARAAGVSKGTLYVYFTDKNRLFEAIVEQESL
soluble fraction (log2): -1.37
--
SEQ STRING: HMGSIEASFEEDVRRYLARKSMTTTEISKKMRQKRPDMSRDQLMTLLANAIKRIKPIKKKIKGTLYLSLE
soluble fraction (log2): -1.3
--
SEQ STRING: HMIITTPYKVTASAINIRSGRGTSYSIIGTVSKGQTVDVYNNSLSKGWVKVKFSGSVGYAYAKYLEK
soluble fraction (log2): -0.299
--
SEQ STRING: HMSLEDMILSLSSRIRRGESLHFRELLVAIETKSGMVTIFMAVLELLKQQVMEMRYEDDDIIFT
soluble fraction (log2): -0.912
--
SEQ STRING: HMLNLNILTDKEKFIAKLISRGLSDSLIAKELYISISTVRSHVNSIYGKTNIKNRSHLASSFLYFELGNLL
soluble fraction (log2): -0.135
--
SEQ STRING: HMPMDDETWDALSLFAYKRYARENGWPLMIGAEALRDTFASYFPLDSSTWQDRSSHYLTYQDGIYTRT
soluble fraction (log2): -0.53
--
SEQ STRING: HMEKINLLVENNDNYRLDKIIALNMEELSRTQIQEMIGQGLVLVNGKVEKASYKTKLNDQIEITIED
soluble fraction (log2): 0.0401
--
SEQ STRING: HMTGMEASLSKLLQGEQFADLRKALIDKGIRKLEAFKRLNLWVFMNRNRLYSIGQRQTVYSTLQRALASE
soluble fraction (log2): 0.0329

###

- MEASUREMENT DESCRIPTION: soluble fraction after stress (log2 fold change); higher = more stays soluble; pooled small domains, quantitative proteomics
- CONDITION DETAILS: stress: 50 degC
Reported soluble fraction (log2) values for the following sequences.
MEASUREMENT KIND: soluble fraction (log2)

SEQ STRING: HMNARSTSYSDFIARVDKDEVASVRLDGETVTYQAADGTTYTTVKPESDPIAERLIAKGIEVNVVRQ
NUMBER: -0.49
--
SEQ STRING: HMDPDDEILINIMTKLLTEKQIIIKNKEIFNFLLKRINRTYEEVYNLINKMDKLSLEKKKQLTIPSIKEL
NUMBER: -1.21
--
SEQ STRING: HMSVPEAAERAIDVAQMRRALGELSPEQQRVLELAYFGGLTRQEIARATGTPLGTVHTRARLGLQNLRARL
NUMBER: -0.299
--
SEQ STRING: HMISDEELLVSTKKEIMSLATVLTKTDKKDDAIAIMKEYDPAANPNRIKDVNKAKELLERLQKLG
NUMBER: -0.125
--
SEQ STRING: HMRKVVLEEKEANYYAEPNSESELLGVLKRGIHLTVTDVKKEAGSDGWVKLVHPDGQEGWISGRARIRV
NUMBER: -0.0551

###

- MEASUREMENT DESCRIPTION: soluble fraction after stress (log2 fold change); higher = more stays soluble; pooled small domains, quantitative proteomics
- CONDITION DETAILS: stress: 50 degC
Param threshold (0.1) applies to soluble fraction (log2); output T when value >= threshold, F when value < threshold.

SEQ STRING: HMDPRTSSLTPQERKVLELVGGGLTNRQIAAEMFLAEKTVKNYVSSLLAKLGFERRTQAAVFIASPAF
CATEGORY: F
//
SEQ STRING: HMHVLNEEYYNRIKAIQFTMNHDDGNSLNDIEKSDIILLGVSRTSKTPTSIYLANRGLRTSNIPLINEK
CATEGORY: F
//
SEQ STRING: HMIMTEKEKKLLNRYIMHDTIHKLYHEQNKSMRWIADNLGINFRTVQKYLDMDSGEFQKYSESISNR
CATEGORY: F
//
SEQ STRING: HMKRGDAYASEMIARLKEAHLIVMEGTLYPLLTRLKNDGLLSYRWEESTQGPPRKYYSITPVG
CATEGORY: T
//
SEQ STRING: HMDVLDVADNVNDDMSFADAFAAARSEVGAGGIFYWHGKAYGTYYENEWAGMSEEDKADYWDAVARTTS
CATEGORY: F
//
SEQ STRING: HMGEEIRTWTDAQGRKIEARMSMLDGDQVLLELKDGRKIPYPLAKLSADDAHYARHFASASASD
CATEGORY: F
//
SEQ STRING: HMQARDQNVDEGKALLEKEFSRLALENLDRDKLANAVNYPTRDDMYAAIGAGDLRVGQVLHQAQQLF
CATEGORY: T
//
SEQ STRING: HMGGEGQIEIREREGIPAEAWVDGVMRGQTPLRVEHVSIGTRRVELRAEGRPPVAADVLVRPTVTALVELS
CATEGORY: T
//
SEQ STRING: HMSTFTPYLVKVTTSVLNIRKGAGTNYGTNGSIRDMGTYTIVAEADGQGASKWGKLKSGAGWISLDYTKK
CATEGORY: F
//
SEQ STRING: HMNRIKIYPTPGSKVLSIENINFSLIHDFKILDIFGREVKNFTVSSEKNTKMLVDTSKLSDGLYFIFFNTF
CATEGORY: F
//
SEQ STRING: HMRTSPGADYEKTYYTIQSGDNLGAIAEKMGVSVADLKDWNDISGTKIYAGKKLVIYVKKGST
CATEGORY: T
//
SEQ STRING: HMKKVTMQDIANILNISRVTVWKVLNNQPGVSKQLRDQILLTAKETGYLKPGQEAEAYLEENNIYFEG
CATEGORY: T
//
SEQ STRING: HMKTVKPSQIPYSEFLKLVETDKINDVSMVGRNIIGHLDDGSKFKTYTPPNDPTLIEKLSSHNIVINAAPE
CATEGORY: T
//
SEQ STRING: HMKDEGSLKVIGQMVVIGIPQSEAKRFANTYTVAQIRAALQYTQKRSEDKNASKLENVAAYFRQALVRNWG
CATEGORY: F
//
SEQ STRING: HMNPASVLDGLKITSFSPTRAIVAGPGGSRIVFDNEAVVLGGIEWDVHIQRNGIEFTSQGQTVLLLFDRS
CATEGORY: F
//
SEQ STRING: HMHPEPDPVLFIDGKEYPYDKLSELDETRVQSMTILPKKSAVKKYGDKYANRSIMEITLKKEN
CATEGORY: F
//
SEQ STRING: HMSSNLTVFTRNNAIIVNSDVVRKLNVFAVDGRLVRSVDLSVGENVINNISRGMYLIDKQKVVV
CATEGORY: F
//
SEQ STRING: HMVGLKWYDTGNKKPPIGTEYKNTELSEALKGHDRKEFTWKELDVLGVNITDKEQYIVVGENYYTQV
CATEGORY: F
//
SEQ STRING: HMDGISANAVKALIESLIAGEDKRKPLSDQAMSDRLALQGIVLARRTVAKYREELNFPPAHQRKQK
CATEGORY: F
//
SEQ STRING: HMKKDDLKQINGIGTTIEKKLNEIDIYNFYQISNLSKEDIETISEKIKTFPGKIERDNWVGQAQELL
CATEGORY: F
//
SEQ STRING: HMKRVVFFNGISWYHRTKELLDDMTTKYGKKGGFATPEEAEKSYWEYEERYKDRQRELQVAYLKN
CATEGORY: F
//
SEQ STRING: HMIDIIEYIISEESKGLRADQGIALQNPQYSRSLIQKWIKKGSVLVNNKIIRTKEILLEGDKISITPEENI
CATEGORY: F
//
SEQ STRING: HMPKIPRLTLTETAGIMGVSQRALALAIQQGMYSWAQALPGRNKKRPIYFINAITFAKAQGIDLEEYK
CATEGORY: F
//
SEQ STRING: HMRNNKLRRANKLKTEFENLPHIGKKRAHVLLKAFGSTENLKMTTAQALSEAAKISLKQAEEVLEAVRG
CATEGORY: F
//
SEQ STRING: HMKGVPGIGDYVKLSGGSTVGKVLSISGKKAEVAFGLLRTTTELSKLEKVRKPKELLQSGVSS
CATEGORY: T
//
SEQ STRING: HMSERIITFGEATREAMLEEMRADERVFVYGEDIAKQGGIFGQFAGMKDEFPERVLDTPISETALVGAG
CATEGORY: F

Values compiled from the domain aggregation screens of Martell et al. (2025).
